Here, each record is paired with measured protein stability index data.
B1: HDAC6 (parent)
chain: ACAQLATGAACRLVEAVLSGEVLN

Variants of: B1
Test Protocol: protein stability index of a GFP-peptide fusion (GPS, HEK-293T) (PSI 1-6); higher = more stable;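 further: lentivirally expressed fusions sorted by FACS into six bins by GFP to DsRed ratio, PSI derived from sequencing read proportions per bin multiplied by bin number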
Experimental Context: c terminus: a fixed tail appended
Just the number, please, no unit after it.

Worked cases, answers included:
Please fill in: protein stability index reported for `C2E` = 2

Please fill in: protein stability index reported for `A10P` = 2

Now look at this one.
Please fill in: protein stability index reported for `A10I` = 2.01
